# Target of assay: T1, IL-18 receptor (IL-18R) on HEK-Blue IL18R reporter cells (UniProt Q13478 19-541; O95256 20-599, limits assumed)
# T1 sequence (looked up) 1: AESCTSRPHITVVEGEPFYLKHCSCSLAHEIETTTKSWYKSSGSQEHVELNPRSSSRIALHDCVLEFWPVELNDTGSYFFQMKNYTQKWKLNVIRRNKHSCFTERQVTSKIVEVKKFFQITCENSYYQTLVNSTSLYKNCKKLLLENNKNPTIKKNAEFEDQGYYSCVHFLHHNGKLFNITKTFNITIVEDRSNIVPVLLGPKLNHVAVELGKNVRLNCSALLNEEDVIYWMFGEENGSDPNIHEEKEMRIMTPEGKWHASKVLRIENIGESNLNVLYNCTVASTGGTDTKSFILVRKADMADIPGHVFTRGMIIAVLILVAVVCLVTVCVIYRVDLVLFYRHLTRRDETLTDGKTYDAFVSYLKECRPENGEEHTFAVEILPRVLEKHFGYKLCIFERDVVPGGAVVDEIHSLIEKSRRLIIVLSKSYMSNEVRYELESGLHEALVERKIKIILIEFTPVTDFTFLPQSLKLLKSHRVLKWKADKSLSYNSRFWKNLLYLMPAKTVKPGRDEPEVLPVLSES
# T1 sequence (looked up) 2: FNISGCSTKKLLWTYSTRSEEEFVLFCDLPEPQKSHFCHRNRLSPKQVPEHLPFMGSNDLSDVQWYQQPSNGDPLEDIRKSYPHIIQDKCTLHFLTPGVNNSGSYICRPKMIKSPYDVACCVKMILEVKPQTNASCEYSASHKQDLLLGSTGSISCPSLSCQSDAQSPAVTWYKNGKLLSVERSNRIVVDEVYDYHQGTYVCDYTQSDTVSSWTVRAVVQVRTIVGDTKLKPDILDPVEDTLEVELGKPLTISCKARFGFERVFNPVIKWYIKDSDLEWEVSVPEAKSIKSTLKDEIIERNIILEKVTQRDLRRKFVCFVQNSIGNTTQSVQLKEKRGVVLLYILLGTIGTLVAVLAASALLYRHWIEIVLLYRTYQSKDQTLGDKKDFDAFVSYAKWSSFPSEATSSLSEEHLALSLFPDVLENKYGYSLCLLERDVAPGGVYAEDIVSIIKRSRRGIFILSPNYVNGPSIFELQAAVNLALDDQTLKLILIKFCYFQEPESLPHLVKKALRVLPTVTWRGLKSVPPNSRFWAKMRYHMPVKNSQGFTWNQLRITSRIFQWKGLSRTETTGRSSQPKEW
# Assay details: cell-based or functional assay
# Lookup of reported EC50, HEK-Blue IL18R reporter keyed by entry

Solved entries:
>>> result("IL-18 variant SEQ ID NO: 206 (V11I, C38A, K53A, S55A, C76A, C127A) (ligand) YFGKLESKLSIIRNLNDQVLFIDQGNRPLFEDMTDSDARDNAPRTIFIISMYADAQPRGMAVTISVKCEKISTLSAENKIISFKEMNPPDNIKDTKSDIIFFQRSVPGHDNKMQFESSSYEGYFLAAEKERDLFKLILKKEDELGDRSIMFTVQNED")
"3.63 nM"
>>> result("IL-18 variant SEQ ID NO: 241 (N-terminal 4xG, E6K, V11I, C38A, K53A, T63A, C76A, C127A) (ligand) GGGGYFGKLKSKLSIIRNLNDQVLFIDQGNRPLFEDMTDSDARDNAPRTIFIISMYADSQPRGMAVAISVKCEKISTLSAENKIISFKEMNPPDNIKDTKSDIIFFQRSVPGHDNKMQFESSSYEGYFLAAEKERDLFKLILKKEDELGDRSIMFTVQNED")
"2.5 nM"
>>> result("IL-18 variant SEQ ID NO: 59 (E6K, C38A, K53A) (ligand) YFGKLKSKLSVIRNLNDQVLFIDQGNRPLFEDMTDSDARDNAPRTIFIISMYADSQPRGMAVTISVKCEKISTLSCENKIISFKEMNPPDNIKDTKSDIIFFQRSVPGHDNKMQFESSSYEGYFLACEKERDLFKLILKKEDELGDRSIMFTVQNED")
"0.268 nM"
>>> result("IL-18 variant SEQ ID NO: 217 (V11I, C38A, N41A, K53A, C76A, C127A) (ligand) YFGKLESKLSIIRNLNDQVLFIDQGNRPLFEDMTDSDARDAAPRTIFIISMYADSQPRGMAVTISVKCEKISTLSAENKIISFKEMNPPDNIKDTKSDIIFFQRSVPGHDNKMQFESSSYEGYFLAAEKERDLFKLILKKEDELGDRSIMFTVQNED")
"11.7 nM"

Exercise: State its EC50, HEK-Blue IL18R reporter: IL-18 variant SEQ ID NO: 222 (K8R, V11I, C38A, C76A, Q103E, C127A) (ligand) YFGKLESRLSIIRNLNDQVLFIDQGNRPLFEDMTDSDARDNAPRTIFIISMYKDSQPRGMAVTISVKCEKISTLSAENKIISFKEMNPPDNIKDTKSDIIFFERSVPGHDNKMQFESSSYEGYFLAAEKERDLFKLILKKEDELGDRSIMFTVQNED
Key: 2.01 nM

Exercise: Look up EC50, HEK-Blue IL18R reporter of IL-18 variant SEQ ID NO: 229 (V11I, C38A, C76A, S105K, C127A) (ligand) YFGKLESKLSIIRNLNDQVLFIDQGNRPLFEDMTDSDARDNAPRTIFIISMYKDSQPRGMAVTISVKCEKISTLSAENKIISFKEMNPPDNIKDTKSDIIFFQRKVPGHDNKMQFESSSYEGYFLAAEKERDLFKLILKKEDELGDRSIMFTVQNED and report it.
Key: 7.73 nM

Exercise: Please supply the value of reported EC50, HEK-Blue IL18R reporter for the item IL-18 variant SEQ ID NO: 216 (V11I, C38A, D40A, K53A, C76A, C127A) (ligand) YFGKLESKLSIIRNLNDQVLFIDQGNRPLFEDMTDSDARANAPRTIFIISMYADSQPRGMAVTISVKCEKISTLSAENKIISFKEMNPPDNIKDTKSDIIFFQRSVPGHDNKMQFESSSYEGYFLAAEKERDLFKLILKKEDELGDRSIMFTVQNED
Key: 0.52 nM
